# Colour index ‘b’ value After Polymerization annotations
- assay: Colour index 'b' of formulations before and after polymerization
- Format: physicochemical
- test-context: UViCure S105E, thin samples (20 μm), under air, LED @385 nm (160 mW/cm^2), 300 s irradiation
- Method: The low yellowing characteristics can be measured by the Colour index ‘b’ value on cured films. Formulations comprising the photoinitiators and neat UViCure S105E resin were prepared as described at example 2.
Reply: number alone, nothing else.

CCCOc1ccc(Cl)c2c(=O)c3cc(-[s+]4c5ccccc5c(=O)c5c(Cl)ccc(OCCC)c54)ccc3sc12 (centres unmarked) [Photoinitiator 5] : 4.91
CCCOc1ccc(Cl)c2c(=O)c3cc([S+](c4ccc(C)cc4)c4ccc(C(=O)c5ccccc5)cc4)ccc3sc12 (centres unmarked) [Photoinitiator 3] : 7.48
CCc1cc(CC)c2sc3ccc([S+](c4ccc(C)cc4)c4ccc(C(=O)c5ccccc5)cc4)cc3c(=O)c2c1 (centres unmarked) [Photoinitiator 4] : 6.09
CC(C)c1ccc2sc3ccc(-[s+]4c5ccccc5c(=O)c5cc(C(C)C)ccc54)cc3c(=O)c2c1 (centres unmarked) [Photoinitiator 1] : 8.71

Then this compound:
The value of Colour index ‘b’ value After Polymerization measured for the compound Cc1ccc([S+](c2ccc(C(=O)c3ccccc3)cc2)c2ccc3sc4ccc(C(C)C)cc4c(=O)c3c2)cc1 (centres unmarked) [Photoinitiator 2] turned out to be 6.26

---

- assay: Molar extinction coefficient in acetonitrile
- Type: physicochemical
endpoint-name: ε at 365 nm (M⁻¹ cm⁻¹)
Kindly answer with a numeric value in M⁻¹ cm⁻¹, unit omitted.

Example results:
CCCOc1ccc(Cl)c2c1[SH](c1ccc(Oc3ccccc3)cc1)c1ccccc1C2=O (stereo not drawn) : 20030
COC(=O)COc1ccc2sc3ccc(-[s+]4c5ccccc5c(=O)c5cc(OCC(=O)OC)ccc54)cc3c(=O)c2c1 (stereo not drawn) : 18314
CCCOc1ccc(Cl)c2c(=O)c3cc([S+](c4ccc(C)cc4)c4ccc(C(=O)c5ccccc5)cc4)ccc3sc12 (stereo not drawn) : 17066
CCCOc1ccc(Cl)c2c(=O)c3cc(-[s+]4c5ccccc5c(=O)c5c(Cl)ccc(OCCC)c54)ccc3sc12 (stereo not drawn) : 37326
CCCOc1ccc(Cl)c2c(=O)c3ccccc3[s+](-c3ccc(-c4ccc(OC)cc4)cc3)c12 (stereo not drawn) : 4507
Cc1ccc([S+](c2ccc(C(=O)c3ccccc3)cc2)c2ccc3sc4ccc(C(C)C)cc4c(=O)c3c2)cc1 (stereo not drawn) : 14201
CCc1cc(CC)c2sc3ccc([S+](c4ccc(C)cc4)c4ccc(C(=O)c5ccccc5)cc4)cc3c(=O)c2c1 (stereo not drawn) : 13154
CCc1cc(CC)c2sc3ccc(-[s+]4c5ccccc5c(=O)c5cc(CC)cc(CC)c54)cc3c(=O)c2c1 (stereo not drawn) : 19117

The value of ε at 365 nm measured for the compound COc1ccccc1-c1cc(-[s+]2c3ccccc3c(=O)c3cc(C(C)C)ccc32)ccc1OC (stereo not drawn) turned out to be 426

The value of ε at 365 nm measured for the compound COc1ccc(-c2ccc(-[s+]3c4ccccc4c(=O)c4cc(C(C)C)ccc43)cc2)cc1 (stereo not drawn) turned out to be 3600

The value of ε at 365 nm measured for the compound CC(C)c1ccc2c(c1)c(=O)c1ccccc1[s+]2-c1ccc(Oc2ccccc2)cc1 (stereo not drawn) turned out to be 185

The value of ε at 365 nm measured for the compound CC(C)c1ccc2sc3ccc(-[s+]4c5ccccc5c(=O)c5cc(C(C)C)ccc54)cc3c(=O)c2c1 (stereo not drawn) turned out to be 23380

All values here come from patent US20260217983A1.
